B1: library; a variant is named by its letters at N, in order (parent)
chain: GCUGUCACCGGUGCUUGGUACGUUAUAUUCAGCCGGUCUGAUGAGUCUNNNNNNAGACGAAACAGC

variants of: B1; experiment: normalized RNA/DNA level without ligand (relative to sTRSVctl = 100) (log10 (% of sTRSVctl)); HEK293T overexpressing SLC46A1; higher = less ribozyme self-cleavage, higher mRNA level; settings: without (6R,S)-folinic acid; ligand present: no
outcome-measure: normalized RNA/DNA level without ligand (log10)
Output: the number by itself.

Could you please provide reported normalized RNA/DNA level without ligand (log10) for GCUGUCACCGGUGCUUGGUACGUUAUAUUCAGCCGGUCUGAUGAGUCUGCUCUUAGACGAAACAGC [GCUCUU] ? Thanks!
2.04

Could you please provide reported normalized RNA/DNA level without ligand (log10) for GCUGUCACCGGUGCUUGGUACGUUAUAUUCAGCCGGUCUGAUGAGUCUUAUUGCAGACGAAACAGC [UAUUGC] ? Thanks!
1.94

Could you please provide reported normalized RNA/DNA level without ligand (log10) for GCUGUCACCGGUGCUUGGUACGUUAUAUUCAGCCGGUCUGAUGAGUCUGAGCUGAGACGAAACAGC [GAGCUG] ? Thanks!
2.09

Could you please provide reported normalized RNA/DNA level without ligand (log10) for GCUGUCACCGGUGCUUGGUACGUUAUAUUCAGCCGGUCUGAUGAGUCUGAACUAAGACGAAACAGC [GAACUA] ? Thanks!
1.99

Could you please provide reported normalized RNA/DNA level without ligand (log10) for GCUGUCACCGGUGCUUGGUACGUUAUAUUCAGCCGGUCUGAUGAGUCUUGCGCUAGACGAAACAGC [UGCGCU] ? Thanks!
2.04

Could you please provide reported normalized RNA/DNA level without ligand (log10) for GCUGUCACCGGUGCUUGGUACGUUAUAUUCAGCCGGUCUGAUGAGUCUUCGUUCAGACGAAACAGC [UCGUUC] ? Thanks!
2.03

Could you please provide reported normalized RNA/DNA level without ligand (log10) for GCUGUCACCGGUGCUUGGUACGUUAUAUUCAGCCGGUCUGAUGAGUCUCUUCUAAGACGAAACAGC [CUUCUA] ? Thanks!
2.05

Could you please provide reported normalized RNA/DNA level without ligand (log10) for GCUGUCACCGGUGCUUGGUACGUUAUAUUCAGCCGGUCUGAUGAGUCUUCUACAAGACGAAACAGC [UCUACA] ? Thanks!
2.06

Could you please provide reported normalized RNA/DNA level without ligand (log10) for GCUGUCACCGGUGCUUGGUACGUUAUAUUCAGCCGGUCUGAUGAGUCUCCCCGUAGACGAAACAGC [CCCCGU] ? Thanks!
2.05

Could you please provide reported normalized RNA/DNA level without ligand (log10) for GCUGUCACCGGUGCUUGGUACGUUAUAUUCAGCCGGUCUGAUGAGUCUGCGAGUAGACGAAACAGC [GCGAGU] ? Thanks!
1.99

Could you please provide reported normalized RNA/DNA level without ligand (log10) for GCUGUCACCGGUGCUUGGUACGUUAUAUUCAGCCGGUCUGAUGAGUCUCAAAGCAGACGAAACAGC [CAAAGC] ? Thanks!
1.99

Could you please provide reported normalized RNA/DNA level without ligand (log10) for GCUGUCACCGGUGCUUGGUACGUUAUAUUCAGCCGGUCUGAUGAGUCUAAGUGAAGACGAAACAGC [AAGUGA] ? Thanks!
1.95

Could you please provide reported normalized RNA/DNA level without ligand (log10) for GCUGUCACCGGUGCUUGGUACGUUAUAUUCAGCCGGUCUGAUGAGUCUCGACGCAGACGAAACAGC [CGACGC] ? Thanks!
2.03

Could you please provide reported normalized RNA/DNA level without ligand (log10) for GCUGUCACCGGUGCUUGGUACGUUAUAUUCAGCCGGUCUGAUGAGUCUCUAGUUAGACGAAACAGC [CUAGUU] ? Thanks!
2.06

Could you please provide reported normalized RNA/DNA level without ligand (log10) for GCUGUCACCGGUGCUUGGUACGUUAUAUUCAGCCGGUCUGAUGAGUCUCGUGCCAGACGAAACAGC [CGUGCC] ? Thanks!
2.07

Could you please provide reported normalized RNA/DNA level without ligand (log10) for GCUGUCACCGGUGCUUGGUACGUUAUAUUCAGCCGGUCUGAUGAGUCUGUAACGAGACGAAACAGC [GUAACG] ? Thanks!
2

Could you please provide reported normalized RNA/DNA level without ligand (log10) for GCUGUCACCGGUGCUUGGUACGUUAUAUUCAGCCGGUCUGAUGAGUCUGUUUAUAGACGAAACAGC [GUUUAU] ? Thanks!
1.99

Could you please provide reported normalized RNA/DNA level without ligand (log10) for GCUGUCACCGGUGCUUGGUACGUUAUAUUCAGCCGGUCUGAUGAGUCUUACGGGAGACGAAACAGC [UACGGG] ? Thanks!
1.7

Could you please provide reported normalized RNA/DNA level without ligand (log10) for GCUGUCACCGGUGCUUGGUACGUUAUAUUCAGCCGGUCUGAUGAGUCUCUUCCUAGACGAAACAGC [CUUCCU] ? Thanks!
2

Could you please provide reported normalized RNA/DNA level without ligand (log10) for GCUGUCACCGGUGCUUGGUACGUUAUAUUCAGCCGGUCUGAUGAGUCUCAUUUGAGACGAAACAGC [CAUUUG] ? Thanks!
2.05

Could you please provide reported normalized RNA/DNA level without ligand (log10) for GCUGUCACCGGUGCUUGGUACGUUAUAUUCAGCCGGUCUGAUGAGUCUCGAUUGAGACGAAACAGC [CGAUUG] ? Thanks!
2.03

Could you please provide reported normalized RNA/DNA level without ligand (log10) for GCUGUCACCGGUGCUUGGUACGUUAUAUUCAGCCGGUCUGAUGAGUCUUGUUCAAGACGAAACAGC [UGUUCA] ? Thanks!
1.99

Hello, the source for this data is the supplement of paper PMC6757056, in case you need it.
